- System Under Test: T1, truncated importin α3 without the IBB domain (residues 64-521) (human, UniProt O00629 64-521)
- T1 construct: human importin α3 (KPNA4) without the IBB domain, residues 64-521; also called ΔImpα3; ΔImportin
- T1 sequence (looked up): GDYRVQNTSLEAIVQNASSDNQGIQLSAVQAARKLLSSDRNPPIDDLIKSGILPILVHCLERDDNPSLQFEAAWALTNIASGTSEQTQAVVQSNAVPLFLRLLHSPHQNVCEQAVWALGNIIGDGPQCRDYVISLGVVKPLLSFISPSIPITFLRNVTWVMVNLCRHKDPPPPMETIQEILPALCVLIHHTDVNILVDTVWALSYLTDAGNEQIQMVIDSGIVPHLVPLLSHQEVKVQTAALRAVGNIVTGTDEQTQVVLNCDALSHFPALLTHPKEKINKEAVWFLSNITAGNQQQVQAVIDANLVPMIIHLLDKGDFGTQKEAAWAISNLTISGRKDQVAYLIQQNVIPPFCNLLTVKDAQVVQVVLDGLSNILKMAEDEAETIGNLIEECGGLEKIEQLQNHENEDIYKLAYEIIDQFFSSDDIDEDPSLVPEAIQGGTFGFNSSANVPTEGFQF
- Method Summary: ITC; intact NUPR1 with ΔImpα3; conditions of this titration are not told (Figure S4)
- Study Conditions: both partners purified
pKd: −log10 of the molar value.
Reported Metric: pKd

Binder: intact NUPR1 (full-length, 82 residues) (natural protein, UniProt O60356 1-82, looked up, NUPR1, UniProtKB O60356, 82 residues long (8 kDa), intact protein; also called full-length NUPR1; nuclear protein 1) MATFPPATSAPQQPPGPEDEDSSLDESDLYSLAHSYLGGGGRKGRTKREAAANTNRPSPGGHERKLVTKLQNSERKKRGARR
Result: 6.40
